The following molecules are shown together with reported Lipid delivery group (1.25 ug/mL) values.
# System: H460 cells
# Experiment: in vitro small nucleic acid delivery by lipid-nucleic acid mixture, cell uptake by flow cytometry
# Format: cell-based, human
# Measurement Context: lipid 1.25 ug/mL, fluorescently labeled PGY-ssRNA-26, final 100 nM, 9 h incubation, flow cytometry fluorescence
Record the value in %, omitting the unit from your answer.

The cases that follow already have their Lipid delivery group (1.25 ug/mL) on record.
CCCCCCCCCCCCCCCCCCC/C=C/[C@@H](O)[C@@H](N)CO :: 79.66
CCCCCCCCCCCCCCCCCCCC[C@@H](O)[C@@H](N)CO :: 98.65

Turning now to a further record.
INPUT: Tell me measured Lipid delivery group (1.25 ug/mL) for CCCCCCCCCCCCCCCCCCCCC/C=C/[C@@H](O)[C@@H](N)CO please.
OUTPUT: 85.87

* * *

Recorded Lipid delivery group (1.25 ug/mL) by entry
# Test system: 293T cells
# Experiment: in vitro small nucleic acid delivery by lipid-nucleic acid mixture, cell uptake by flow cytometry
# Assay type: cell-based, human
# Measurement Context: lipid 1.25 ug/mL, fluorescently labeled PGY-ssRNA-26, final 100 nM, 9 h incubation, flow cytometry fluorescence
# unit: % | format: bare number

INPUT: Please supply the value of reported Lipid delivery group (1.25 ug/mL) for the item CCCCCCCCCCCCCCCCCCCCCCCCCCCCCCC/C=C/[C@@H](O)[C@@H](N)CO [Sphingosine (d36:1)]
OUTPUT: 25.23

INPUT: Give a short answer stating reported Lipid delivery group (1.25 ug/mL) for CCCCCCCCCCCCCCCCCCC[C@@H](O)[C@@H](N)CO [Sphingosine (d22:0), (2S,3R)-2-aminodocosane-1,3-diol] .
OUTPUT: 22.99

* * *

# Tested on: H460 cells
# Experiment: in vitro small nucleic acid delivery by lipid-nucleic acid mixture, cell uptake by flow cytometry
# Assay type: cell-based, human
# Measurement Context: lipid 1.25 ug/mL, fluorescently labeled PGY-ssRNA-26, final 100 nM, 9 h incubation, flow cytometry fluorescence
Metric: Lipid delivery group (1.25 ug/mL) (%)
Your answer should be a plain number; it is taken to be in %.

CCCCCCCCCCCCCCCCCCCCCCCC/C=C/[C@@H](O)[C@@H](N)CO :: 62.37
CCCCCCCCCCCCCCCCCCCCCCCCC/C=C/[C@@H](O)[C@@H](N)CO :: 54.83
CCCCCCCCCCCCCCCCCCCCCCCCCC/C=C/[C@@H](O)[C@@H](N)CO :: 82.66

INPUT: For CCCCCCCCCCCCCCCCCCCCCCCCCCCCCCC/C=C/[C@@H](O)[C@@H](N)CO , write its Lipid delivery group (1.25 ug/mL).
OUTPUT: 48.37

* * *

# System: 293T cells
# Experiment: in vitro small nucleic acid delivery by lipid-nucleic acid mixture, cell uptake by flow cytometry
# Assay type: cell-based, human
# Measurement Context: lipid 1.25 ug/mL, fluorescently labeled PGY-ssRNA-26, final 100 nM, 9 h incubation, flow cytometry fluorescence
Catalogue of Lipid delivery group (1.25 ug/mL) readings, one per entry.
The figure you give is taken to be in %; do not add the unit.

CCCCCCCCCCCCCCCCCCCCCCCCCC/C=C/[C@@H](O)[C@@H](N)CO :: 75.77

INPUT: Give the value of Lipid delivery group (1.25 ug/mL) reported for the following: CCCCCCCCCCCCCCCCCCCCCCCCCCCC/C=C/[C@@H](O)[C@@H](N)CO
OUTPUT: 40.07

INPUT: Given the molecule CCCCCCCCCCCCCCCCCCCCCCCCCCCCCCCCC[C@@H](O)[C@@H](N)CO , write its reported Lipid delivery group (1.25 ug/mL).
OUTPUT: 40.66

INPUT: Please indicate Lipid delivery group (1.25 ug/mL) recorded for CCCCCCCCCCCCCCCCCCCCCCCCCCCCC/C=C/[C@@H](O)[C@@H](N)CO
OUTPUT: 38.31

* * *

# Test system: 293T cells
# Experiment: in vitro small nucleic acid delivery by lipid-nucleic acid mixture, cell uptake by flow cytometry
# Format: cell-based, human
# Measurement Context: lipid 1.25 ug/mL, fluorescently labeled PGY-ssRNA-26, final 100 nM, 9 h incubation, flow cytometry fluorescence
Measured Lipid delivery group (1.25 ug/mL), listed per entry for reference.
Report the figure in % without appending any unit label.

Example entries and their recorded answers appear below.
CCCCCCCCCCCCCCCCCCCCCCCCCC[C@@H](O)[C@@H](N)CO :: 72.18
CCCCCCCCCCCCCCCCCCCCCCCCCCCCCCC[C@@H](O)[C@@H](N)CO :: 5

Now for the compound whose Lipid delivery group (1.25 ug/mL) we want.
INPUT: Specify measured Lipid delivery group (1.25 ug/mL) for CCCCCCCCCCCCCCCCCCCCCCCCC[C@@H](O)[C@@H](N)CO .
OUTPUT: 96.93

* * *

Listing of recorded Lipid delivery group (1.25 ug/mL) by entry.
# Tested on: 293T cells
# Experiment: in vitro small nucleic acid delivery by lipid-nucleic acid mixture, cell uptake by flow cytometry
# Format: cell-based, human
# Measurement Context: lipid 1.25 ug/mL, fluorescently labeled PGY-ssRNA-26, final 100 nM, 9 h incubation, flow cytometry fluorescence

Here's what some known entries look like.
CCCCCCCCCCCCCCCCCCCC[C@@H](O)[C@@H](N)CO :: 98.16%
CCCCCCCCCCCCCCCCCCCCCCCCCCCCC[C@@H](O)[C@@H](N)CO :: 34.02%
CCCCCCCCCCCCCCCCCCCCC/C=C/[C@@H](O)[C@@H](N)CO :: 87.97%
CCCCCCCCCCCCCCCCCCCCCCCC/C=C/[C@@H](O)[C@@H](N)CO :: 32.74%

INPUT: Identify measured Lipid delivery group (1.25 ug/mL) corresponding to CCCCCCCCCCCCCCCCCCCCCCC[C@@H](O)[C@@H](N)CO
OUTPUT: 95.55%

INPUT: Give the measured Lipid delivery group (1.25 ug/mL) for CCCCCCCCCCCCCCCCCCCCCC/C=C/[C@@H](O)[C@@H](N)CO
OUTPUT: 92.77%

INPUT: Dear colleague, please send me the reported Lipid delivery group (1.25 ug/mL) for CCCCCCCCCCCCCCCCCCCCCCCCCCCCCCCC[C@@H](O)[C@@H](N)CO when you can.
OUTPUT: 43.03%

INPUT: Tell me Lipid delivery group (1.25 ug/mL) reported for CCCCCCCCCCCCCCCCCCCCCCCCCCCCCC[C@@H](O)[C@@H](N)CO
OUTPUT: 61.39%

INPUT: Specify reported Lipid delivery group (1.25 ug/mL) for the compound shown: CCCCCCCCCCCCCCCCCCCCCCCCCCCCCC/C=C/[C@@H](O)[C@@H](N)CO
OUTPUT: 50.79%

INPUT: Please report Lipid delivery group (1.25 ug/mL) for the following compound: CCCCCCCCCCCCCCCCCCCCCC[C@@H](O)[C@@H](N)CO
OUTPUT: 97.76%

INPUT: Tell me Lipid delivery group (1.25 ug/mL) reported for CCCCCCCCCCCCCCCCCCCCCCCCC/C=C/[C@@H](O)[C@@H](N)CO
OUTPUT: 95.79%

* * *

A collection of compounds and their measured Lipid delivery group (1.25 ug/mL)
# Test system: 293T cells
# Experiment: in vitro small nucleic acid delivery by lipid-nucleic acid mixture, cell uptake by flow cytometry
# Assay type: cell-based, human
# Measurement Context: lipid 1.25 ug/mL, fluorescently labeled PGY-ssRNA-26, final 100 nM, 9 h incubation, flow cytometry fluorescence
Report as a plain number; the unit % is understood.

Example cases with answers are listed next.
CCCCCCCCCCCCCCCCCCCCCCCCCCC/C=C/[C@@H](O)[C@@H](N)CO :: 86.77
CCCCCCCCCCCCCCCCCC/C=C/[C@@H](O)[C@@H](N)CO :: 34.51
CCCCCCCCCCCCCCCCCCCCCCCCCCC[C@@H](O)[C@@H](N)CO :: 83.38
CCCCCCCCCCCCCCCCCCCCCCCC[C@@H](O)[C@@H](N)CO :: 91.06
CCCCCCCCCCCCCCCCCCCC/C=C/[C@@H](O)[C@@H](N)CO :: 78.12
CCCCCCCCCCCCCCCCCCC/C=C/[C@@H](O)[C@@H](N)CO :: 63.97

INPUT: Supply measured Lipid delivery group (1.25 ug/mL) of CCCCCCCCCCCCCCCCCCCCCCCCCCCC[C@@H](O)[C@@H](N)CO in your reply.
OUTPUT: 97.4

INPUT: Determine its reported Lipid delivery group (1.25 ug/mL): CCCCCCCCCCCCCCCCCCCCCCC/C=C/[C@@H](O)[C@@H](N)CO
OUTPUT: 86.5

INPUT: Given CCCCCCCCCCCCCCCCCCCCC[C@@H](O)[C@@H](N)CO , respond with its Lipid delivery group (1.25 ug/mL).
OUTPUT: 96.77

Values compiled from patent EP4591884A1.
